Molecular target: T1, HD49 (huntingtin exon 1 protein with 49 polyQ repeats after cleavage of the GST tag; aggregation reaction) (human, UniProt P42858 1-88)
T1 chain: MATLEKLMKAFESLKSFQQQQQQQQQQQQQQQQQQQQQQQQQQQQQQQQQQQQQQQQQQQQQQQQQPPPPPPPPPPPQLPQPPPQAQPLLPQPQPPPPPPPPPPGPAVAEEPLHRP
Assay: ELISA
pEC50: −log10 of the molar value.

- binder: "NI-302.71F6 (antibody, V domains shown) VH: QVQLQQWGAGLLKPSETLSLTCAVYGGSLSGYYWSWIRQPPGKGLEWIGEVNHSGGTNLNSSLKSRVIISVDKSKKQFSLKLSSVTAADTAMYFCARGYSYDPKYYFDSWSQGTLVTVSS VL: QSALTQPASVSGSPGQAITISCTGTSSDIGSYDFVSWYQQDPGKAPKVIIYGVNKRPSGVSNRFSGSKSGNTASLTISGLQADDEADYYCCSYAGSTTWVFGGGTKLTVL"
  pEC50: 8.36
